assay: in vitro
conditions used: rat, gh3-tre-luc cells, AC50 (uM) modified / 1000
Where a name gives a salt, the structure may show the parent alone.
reported property: CC50 at 24 h

{"columns": ["compound", "reported property", "obs value"],
 "data": [
  ["Nc1cc(S(=O)(=O)O)ccc1O [2-Amino-1-phenol-4-sulfonic acid]", "CC50 at 24 h", "> 90 µM"],
  ["CCN(CC)CCOC(=O)c1ccc(N)cc1Cl [Chloroprocaine hydrochloride]", "CC50 at 24 h", "> 50 µM"],
  ["COC(=O)C1CCC(C(=O)OC)CC1 (stereo not shown) [Dimethyl hexahydroterephthalate]", "CC50 at 24 h", "> 90 µM"],
  ["O=C(O)COc1ccc2ccccc2c1 [2-Naphthoxyacetic acid]", "CC50 at 24 h", "> 90 µM"],
  ["N#CCCOCCOCCC#N [3,3'-(Ethylenedioxy)dipropiononitrile]", "CC50 at 24 h", "> 90 µM"],
  ["CNC[C@H](O)[C@@H](O)[C@H](O)[C@H](O)CO [Meglumine]", "CC50 at 24 h", "> 90 µM"],
  ["CCCCCCCCCCCCCCCC(=O)OC [Methyl hexadecanoate]", "CC50 at 24 h", "> 30 µM"],
  ["C#C[C@]1(O)CC[C@H]2[C@@H]3CCC4=CC(=NO)CC[C@@H]4[C@H]3CC[C@@]21CC [Norelgestromin]", "CC50 at 24 h", "35.1 µM"],
  ["CC(=O)OCc1ccc2c(c1)OCO2 [Piperonyl acetate]", "CC50 at 24 h", "> 90 µM"],
  ["CC(C)CCCCCCCOP(=O)(Oc1ccccc1)Oc1ccccc1 [Isodecyl diphenyl phosphate]", "CC50 at 24 h", "27.3 µM"],
  ["O=C(CCN1CCN2CCCC2C1)N1c2ccccc2Sc2ccc(Cl)cc21 (stereo not shown) [Azaclorzine]", "CC50 at 24 h", "14.6 µM"],
  ["CCOC(=O)O[C@H](C)OC(=O)c1ccc2c(c1)cc(C(=O)NC1CCN(C(C)C)CC1)n2Cc1cc(-c2ccc(Cl)s2)on1 [AVE6324]", "CC50 at 24 h", "4.58 µM"],
  ["O=C(OOC(=O)c1ccccc1)c1ccccc1 [Benzoyl peroxide]", "CC50 at 24 h", "> 50 µM"],
  ["CCCCC(=O)N(C)C [N,N-Dimethylpentanamide]", "CC50 at 24 h", "> 90 µM"],
  ["CCCCC(CC)C(=O)OCCOCCOCCOCCOC(=O)C(CC)CCCC (stereo not shown)", "CC50 at 24 h", "> 90 µM"],
  ["CCCCCCCOC(=O)CCC [Heptyl butanoate]", "CC50 at 24 h", "> 90 µM"],
  ["O=C(c1cc(O)c(O)c(O)c1)c1ccc(O)c(O)c1O [Exifone]", "CC50 at 24 h", "43.6 µM"],
  ["C[C@@H](N)C(=O)c1ccccc1 [(R)-(+)-Cathinone hydrochloride]", "CC50 at 24 h", "> 100 µM"],
  ["CN1C(=O)CCS(=O)(=O)C1c1ccc(Cl)cc1 (stereo not shown) [Chlormezanone]", "CC50 at 24 h", "> 90 µM"]
]}

---

assay: in vitro
conditions used: rat, gh3-tre-luc cells, AC50 (uM) modified / 1000

{"columns": ["molecule", "CC50 at 24 h"],
 "data": [
  ["Nc1ccncc1N", "> 50 µM"],
  ["CC(=O)OC1CC(C)OC(C)O1 (stereo not shown)", "> 90 µM"],
  ["C=CC(=O)OCC(C)OCC(C)OCC(C)OC(=O)C=C (stereo not shown) [Tripropylene glycol diacrylate]", "36.2 µM"],
  ["Clc1ccccc1C(c1ccccc1)(c1ccccc1)n1ccnc1", "5.21 µM"],
  ["COC(=O)Nc1ccc(Cl)c(Cl)c1", "> 90 µM"],
  ["Cc1ccccc1OCC(O)CNCCOc1ccc(C(N)=O)cc1 (stereo not shown)", "13.4 µM"],
  ["O=C1NC(=O)c2cccc3cccc1c23 [1H-Benzo[de]isoquinoline-1,3(2H)-dione]", "> 90 µM"],
  ["CCCC[P+](CCCC)(CCCC)CCCC [Tetrabutylphosphonium bromide]", "> 90 µM"],
  ["CCOC(N)=O", "> 100 µM"],
  ["CO[C@H]1O[C@@H]2O[C@@]3(C)CC[C@H]4[C@H](C)CC[C@@H]([C@H]1C)[C@@]24OO3", "> 50 µM"]
]}
